Read-out: Cytochrome P450 3A7 (Homo sapiens)
experimentalProtocol: LTEA_HepaRG_CYP3A7: Life Technologies and Expression Analysis (LTEA) Assay for CYP3A7 using HepaRG (AID 2283492)
conditionSummary: mRNA level, 48 h; actives raise or lower the signal
The source made the active and inactive calls. The calls were made as follows: active = hit-call score of the fitted dose curve at least 0.9, where 1 is the maximum; inactive = score below 0.9.
Possible outcomes: active, inactive

> print(dat)
                                         smi  assignedlabel
 1                               COc1ccccc1N       inactive
 2                          Clc1cccc(Cl)c1Cl       inactive
 3                           Cc1cc(C)cc(C)c1       inactive
 4                         CC(C)(C)c1ccccc1O         active
 5    O=C(N[C@H]1CN2CCC1CC2)c1ccc2c(c1)OCCO2       inactive
 6                            Clc1cccc(Cl)c1       inactive
 7                               N#Cc1cccnc1       inactive
 8                               CN(C)C(=S)S       inactive
 9                       Oc1cc(Cl)c(Cl)cc1Cl       inactive
10  CC(C)O.CC(C)O.OCCN(CCO)CCO.OCCN(CCO)CCO.[Ti]       inactive

Just for reference, PubChem BioAssay (EPA / NIEHS) is where these values come from.
